Here, each record is paired with measured IC50 data.
- tested.system: human TRPV4 (hTRPV4/CHO cells) (Homo sapiens, UniProt Q9HBA0)
- Construct: expressed in transfected cells; host or cells: CHO-K1
- Sequence (Q9HBA0 whole entry): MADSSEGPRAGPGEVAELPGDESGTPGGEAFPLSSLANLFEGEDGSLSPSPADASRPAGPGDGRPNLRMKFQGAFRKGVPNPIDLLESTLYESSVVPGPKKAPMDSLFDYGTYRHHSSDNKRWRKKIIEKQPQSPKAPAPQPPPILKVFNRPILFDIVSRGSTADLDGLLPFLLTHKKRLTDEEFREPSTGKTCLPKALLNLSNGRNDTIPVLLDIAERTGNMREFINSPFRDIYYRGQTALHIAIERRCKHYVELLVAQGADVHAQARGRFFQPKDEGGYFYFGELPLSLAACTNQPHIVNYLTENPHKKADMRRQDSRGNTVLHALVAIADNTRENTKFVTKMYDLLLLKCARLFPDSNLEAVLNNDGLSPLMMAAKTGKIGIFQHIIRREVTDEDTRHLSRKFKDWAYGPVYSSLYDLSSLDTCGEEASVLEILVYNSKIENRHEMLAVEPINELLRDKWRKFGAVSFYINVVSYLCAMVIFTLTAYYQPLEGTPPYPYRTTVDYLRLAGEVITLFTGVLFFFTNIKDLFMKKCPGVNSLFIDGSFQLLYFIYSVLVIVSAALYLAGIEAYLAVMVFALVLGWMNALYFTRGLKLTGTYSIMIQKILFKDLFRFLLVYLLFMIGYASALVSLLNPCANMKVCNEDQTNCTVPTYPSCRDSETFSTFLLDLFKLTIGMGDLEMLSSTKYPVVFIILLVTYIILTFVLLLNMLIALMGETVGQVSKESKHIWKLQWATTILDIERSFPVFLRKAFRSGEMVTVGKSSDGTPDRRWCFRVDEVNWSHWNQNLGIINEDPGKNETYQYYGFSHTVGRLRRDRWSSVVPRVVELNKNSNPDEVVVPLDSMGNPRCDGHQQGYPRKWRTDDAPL
- test.details: Test Example 1: TRPV4 inhibitory activity (IC50 value), 4α-PDD stimulation, Fluo4 calcium fluorescence (FLIPR TETRA)
- Type: cell-based
- condition.label: Test Example 1, 4α-PDD stimulation, read-out: Test 1 IC50

Sample records with IC50:
{"compound": "COc1cc(CC(=O)Nc2nc(-c3sc(C)nc3C)cs2)cc(C(=O)NC(C)(C)C(F)(F)F)c1 [Compound I-528]", "tested.system": "human TRPV4 (hTRPV4/CHO cells) (Homo sapiens, UniProt Q9HBA0)", "IC50": "< 100 nM"}
{"compound": "Cc1nc(C)c(-c2csc(NC(=O)Cc3ccc(S(=O)(=O)N(C)c4ccccc4)cc3)n2)s1 [Compound I-159]", "tested.system": "human TRPV4 (hTRPV4/CHO cells) (Homo sapiens, UniProt Q9HBA0)", "IC50": "< 100 nM"}

Query compound follows.
Inquiry: May I ask what IC50 has been recorded for CC(OC(N)=O)c1nc(CO)sc1-c1csc(NC(=O)Cc2ccc(S(=O)(=O)C(F)(F)F)cc2)n1 (single isomer, unassigned) [Compound I-479] ?
Reply text: 1000 to 8000 nM
